Reference for the values: PubChem BioAssay AID1902

testTarget: S. pyogenes SKKanGAS, kanamycin survival, BacTiterGlo, 6 h
methodSummary: S. pyogenes SKKanGAS kanamycin growth inhibitors – SKKanGAS strain, luminescence, dose confirmation, streptokinase promoter inhibitor project, dose response (AID 1902);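 further: lower survival reflects blocked streptokinase promoter driving kanamycin resistance gene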
Active and inactive are the calls of the source.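 How the source made its calls: active means EC50 no more than a set limit of log units above the highest dose; inactive means the rest.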
Outcome codes: 1 = active, -1 = inactive

{"columns": ["compound", "assignedCategory"],
 "data": [
  ["O=c1c2ccccc2oc2cc(-c3ccc4[nH]ccc4c3)ccc12", 1],
  ["Cc1nn(CC(O)CN2c3ccccc3Sc3ccccc32)c(C)c1Br (stereo unspecified)", 1],
  ["O=[N+]([O-])c1ccc(/C=N/NC(=S)Nc2ccc(Cl)cc2Cl)s1", 1],
  ["COc1ccc(C(=O)Nc2sc(C)c(-c3ccccc3)c2C#N)cc1OC", 1],
  ["c1ccc(-c2nc(N3CCCCCC3)c3ccccc3n2)nc1", 1],
  ["O=c1[nH]c2ccc(Cl)cc2c(-c2ccccc2)c1N1CCN(c2ccccn2)CC1", 1],
  ["CCSc1cc(N2CCCC2)nc(-c2ccccc2)n1", -1],
  ["CCCCC/C=C\\C/C=C\\C/C=C\\C/C=C\\CCCC(=O)Nc1ccc(O)cc1", 1],
  ["CSc1ccc(/C=C/c2ccc3cccc(O)c3n2)cc1", 1],
  ["CCC(C)c1ccc(C(C)NC(=S)NC2CCCCC2)cc1 (stereo unspecified)", 1],
  ["COc1cccc(-c2nnc(Nc3nc4c(F)cccc4s3)o2)c1", 1]
]}
